Examples of compounds with documented IC50 follow.
Biological target: NRAS G12C (Homo sapiens (Human), UniProt P01111+P62937, G12C)
Sequence (P01111 whole entry G12C, one chain of several): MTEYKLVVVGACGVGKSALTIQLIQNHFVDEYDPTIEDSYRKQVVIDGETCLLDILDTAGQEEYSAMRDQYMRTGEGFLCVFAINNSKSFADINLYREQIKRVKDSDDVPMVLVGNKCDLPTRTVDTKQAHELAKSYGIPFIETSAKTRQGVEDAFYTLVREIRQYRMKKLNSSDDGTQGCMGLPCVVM
Assay: Ras-Raf disruption/FRET/MOA assay (BRAF RBD, Cyclophilin A)
Type: biochemical
Settings: read-out: NRAS G12C FRET data IC50

mol_smiles	IC50
CCn1c(-c2cccnc2[C@H](C)OC)c2c3cc(ccc31)-c1csc(n1)C[C@H](NC(=O)[C@H](C(C)C)N(C)C(=O)N1CCC[C@H](N(C)C)C1)C(=O)N1CCC[C@H](N1)C(=O)OCC(C)(C)C2	0.01 to 0.1 µM

Input: Report value: IC50, system: NRAS G12C (Homo sapiens (Human), UniProt P01111+P62937, G12C), compound: CCN(C)C(=O)N(C)[C@H](C(=O)N[C@H]1Cc2nc(cs2)-c2ccc3c(c2)c(c(-c2cccnc2[C@H](C)OC)n3CC)CC(C)(C)COC(=O)[C@@H]2CCCN(N2)C1=O)C(C)C
Output: 0.01 to 0.1 µM

Input: Find IC50 for CCn1c(-c2cnccc2COC)c2c3cc(ccc31)-c1cc(O)cc(c1)C[C@H](NC(=O)[C@H](C(C)C)N(C)C(=O)[C@H]1CCN(C[C@H](C)O)C1)C(=O)N1CCC[C@H](N1)C(=O)OCC(C)(C)C2 on NRAS G12C (Homo sapiens (Human), UniProt P01111+P62937, G12C) and write it down.
Output: 0.1 to 1 µM

Input: Provide IC50, system NRAS G12C (Homo sapiens (Human), UniProt P01111+P62937, G12C), entry CCn1c(-c2cccnc2[C@H](C)OC)c2c3cc(ccc31)-c1cc(O)cc(c1)C[C@H](NC(=O)[C@H](C(C)C)N(C)C(=O)[C@@H]1CCN(C(=O)[C@]3(C)CCCN3C)C1)C(=O)N1CCC[C@H](N1)C(=O)OCC(C)(C)C2
Output: 0.01 to 0.1 µM

---

Biological target: KRAS G13D (Homo sapiens (Human), UniProt P01116+P62937, G13D)
Sequence (P01116 other isoform, or with tags, fused parts or gaps G13D, one chain of several): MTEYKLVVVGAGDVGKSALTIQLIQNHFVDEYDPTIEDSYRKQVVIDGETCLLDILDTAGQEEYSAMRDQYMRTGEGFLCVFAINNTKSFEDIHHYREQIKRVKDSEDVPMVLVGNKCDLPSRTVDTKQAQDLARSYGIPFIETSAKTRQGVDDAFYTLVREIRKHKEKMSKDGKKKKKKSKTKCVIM
Experiment: Ras-Raf disruption/FRET/MOA assay (BRAF RBD, Cyclophilin A)
Assay type: biochemical
Details: read-out: KRAS G13D FRET data IC50
pIC50: −log10 of the molar value.
reported_property: pIC50

Sample records with pIC50:
mol_smiles	tested_target	pIC50
CCn1c(-c2cccnc2[C@H](C)OC)c2c3cc(ccc31)-c1cc(O)cc(c1)C[C@H](NC(=O)[C@H](C(C)C)N(C)C(=O)[C@H]1CCN(C(=O)[C@H]3CCCN3C)C1)C(=O)N1CCC[C@H](N1)C(=O)OCC(C)(C)C2	KRAS G13D (Homo sapiens (Human), UniProt P01116+P62937, G13D)	7.00 to 8.00
CCn1c(-c2cccnc2[C@H](C)OC)c2c3cc(ccc31)-c1cccc(c1)C[C@H](NC(=O)[C@H](C(C)C)N(C)C(=O)[C@H]1CCNC1)C(=O)N1CCC[C@H](N1)C(=O)OCC(C)(C)C2	KRAS G13D (Homo sapiens (Human), UniProt P01116+P62937, G13D)	6.00 to 7.00
CCn1c(-c2cccnc2[C@H](C)OC)c2c3cc(ccc31)-c1cc(O)cc(c1)C[C@H](NC(=O)[C@H](C(C)C)N(C)C(=O)[C@]1(F)CCN(C(=O)OC)C1)C(=O)N1CCC[C@H](N1)C(=O)OCC(C)(C)C2	KRAS G13D (Homo sapiens (Human), UniProt P01116+P62937, G13D)	6.00 to 7.00
CCn1c(-c2cccnc2[C@H](C)OC)c2c3cc(ccc31)-c1cc(O)cc(c1)C[C@H](NC(=O)[C@H](C(C)C)N(C)C(=O)[C@H]1[C@@H](N)[C@@H]3CC[C@H]1O3)C(=O)N1CCC[C@H](N1)C(=O)OCC(C)(C)C2	KRAS G13D (Homo sapiens (Human), UniProt P01116+P62937, G13D)	6.00 to 7.00
CCn1c(-c2cccnc2[C@H](C)OC)c2c3cc(ccc31)-c1cc(O)cc(c1)C[C@H](NC(=O)[C@H](C(C)C)N(C)C(=O)[C@@H]1[C@H]3CC[C@H](C3)[C@@H]1N)C(=O)N1CCC[C@H](N1)C(=O)OCC(C)(C)C2	KRAS G13D (Homo sapiens (Human), UniProt P01116+P62937, G13D)	6.00 to 7.00

Input: Specify reported pIC50 for the compound shown: CCn1c(-c2cnccc2COC)c2c3cc(ccc31)-c1cc(O)cc(c1)C[C@H](NC(=O)[C@H](C(C)C)N(C)C(=O)N1CCNCC1)C(=O)N1CCC[C@H](N1)C(=O)OCC(C)(C)C2
Output: 7.00 to 8.00

Input: Tell me pIC50 reported for CCn1c(-c2cc(N3CCN(C)CC3)cnc2[C@H](C)OC)c2c3cc(ccc31)-c1csc(n1)C[C@H](NC(=O)[C@H](C(C)C)N(C)C(=O)N1CC(C3COC3)C1)C(=O)N1CCC[C@H](N1)C(=O)OCC(C)(C)C2
Output: 6.00 to 7.00

Input: Answer with the recorded pIC50 for the compound listed here: CCn1c(-c2cccnc2[C@H](C)OC)c2c3cc(ccc31)-c1cc(O)cc(c1)C[C@H](NC(=O)[C@H](C(C)C)N(C)C(=O)[C@@H]1CCN(C(=O)[C@]3(C)CCCN3C)C1)C(=O)N1CCC[C@H](N1)C(=O)OCC(C)(C)C2
Output: 7.00 to 8.00

Input: Let me know recorded pIC50 for CCn1c(-c2cccnc2[C@H](C)OC)c2c3cc(ccc31)-c1csc(n1)C[C@H](NC(=O)[C@H](C(C)C)N(C)C(=O)[C@H]1CCN(C(=O)CN(C)C)C1)C(=O)N1CCC[C@H](N1)C(=O)OCC(C)(C)C2 , thanks.
Output: 5.00 to 6.00

Input: Supply measured pIC50 of CCn1c(-c2cccnc2[C@H](C)OC)c2c3cc(ccc31)-c1cc(O)cc(c1)C[C@H](NC(=O)[C@H](C(C)C)N(C)C(=O)[C@H]1CCCO1)C(=O)N1CCC[C@H](N1)C(=O)OCC(C)(C)C2 in your reply.
Output: 6.00 to 7.00

---

Molecular target: KRAS WT (Homo sapiens (Human), UniProt P01116+P62937)
Sequence (P01116 other isoform, or with tags, fused parts or gaps): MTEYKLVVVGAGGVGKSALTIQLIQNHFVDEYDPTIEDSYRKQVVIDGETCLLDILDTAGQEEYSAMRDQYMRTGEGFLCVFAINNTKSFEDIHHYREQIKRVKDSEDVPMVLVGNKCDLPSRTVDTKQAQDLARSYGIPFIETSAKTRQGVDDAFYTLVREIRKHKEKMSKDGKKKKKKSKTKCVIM
Sequence (P62937 whole entry): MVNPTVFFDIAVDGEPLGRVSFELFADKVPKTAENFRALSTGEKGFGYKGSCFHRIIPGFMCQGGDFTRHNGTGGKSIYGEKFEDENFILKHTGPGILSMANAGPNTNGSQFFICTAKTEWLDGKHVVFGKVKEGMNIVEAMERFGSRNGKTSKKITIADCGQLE
Test: Ras-Raf disruption/FRET/MOA assay, KRAS WT
Format: biochemical
Conditions: read-out: KRAS WT FRET IC50
pIC50: −log10 of the molar value.
Reported pIC50 values for the following molecules.

molecule	reported_property	result
CCn1c(-c2cnccc2COC)c2c3cc(ccc31)-c1cc(O)cc(c1)C[C@H](NC(=O)[C@H](C(C)C)N(C)C(=O)C1CCN(C(=O)[C@H]3CN3)CC1)C(=O)N1CCC[C@H](N1)C(=O)OCC(C)(C)C2	pIC50	6.00 to 7.00

Input: Look up and report measured pIC50 for this entry: CCn1c(-c2cccnc2[C@@H](C)OC)c2c3cc(ccc31)-c1cc(O)cc(c1)C[C@H](NC(=O)[C@H](C(C)C)N(C)C(=O)[C@H]1CCN(C(=O)[C@H]3CN3)C1)C(=O)N1CCC[C@H](N1)C(=O)OCC(C)(C)C2 (atropisomer, axis not shown) [Example 43B]
Output: 5.00 to 6.00

Input: Report pIC50 for CCn1c(-c2cnccc2COC)c2c3cc(ccc31)-c1cccc(c1)C[C@H](NC(=O)[C@H](C(C)C)N(C)C(=O)CCN=C=Nc1ccc(N3CCOCC3)cc1)C(=O)N1CCC[C@H](N1)C(=O)OCC(C)(C)C2
Output: 5.00 to 6.00

---

Target: NRAS G12C (Homo sapiens (Human), UniProt P01111+P62937, G12C)
Test: Ras-Raf disruption/FRET/MOA assay (BRAF RBD, Cyclophilin A)
Type: biochemical
Conditions: read-out: NRAS G12C FRET data IC50
Below is a list of entries, each paired with its recorded IC50 value.

compound	tested_target	result
CCn1c(-c2cccnc2[C@H](C)OC)c2c3cc(ccc31)-c1csc(n1)[C@@H](OC)[C@H](NC(=O)[C@H](C(C)C)N(C)C(=O)N(C)C)C(=O)N1CCC[C@H](N1)C(=O)OCC(C)(C)C2 [Compound A598]	NRAS G12C (Homo sapiens (Human), UniProt P01111+P62937, G12C)	10 to 100 nM

Input: Return the recorded IC50 value; entry: CCn1c(-c2cccnc2[C@H](C)OC)c2c3cc(ccc31)-c1cc(O)cc(c1)C[C@H](NC(=O)[C@H](C(C)C)N(C)C(=O)[C@H]1CCCO1)C(=O)N1CCC[C@H](N1)C(=O)OCC(C)(C)C2 [Compound A240]
Output: 10 to 100 nM

Input: Item CCn1c(-c2cccnc2[C@H](C)OC)c2c3cc(ccc31)-c1csc(n1)C[C@H](NC(=O)[C@H](C(C)C)N(C)C(=O)N1CCN(C)[C@@H](c3ccccc3)C1)C(=O)N1CCC[C@H](N1)C(=O)OCC(C)(C)C2 [Compound A524] : provide IC50
Output: 100 to 1000 nM

Input: Give reported IC50 value for CCn1c(-c2cccnc2[C@H](C)OC)c2c3cc(ccc31)-c1csc(n1)C[C@H](NC(=O)[C@H](C(C)C)N(C)C(=O)N1CC[C@H]1CN(C)C)C(=O)N1CCC[C@H](N1)C(=O)OCC(C)(C)C2 [Compound A508]
Output: 100 to 1000 nM
